B1: Cytoplasmic polyadenylation element-binding protein 2, residues 513 to 575; numbered along this chain, Q7Z5Q1 (parent)
chain: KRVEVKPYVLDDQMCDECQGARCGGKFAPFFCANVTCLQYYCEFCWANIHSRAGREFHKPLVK

Variants of: B1
Test: abundance fitness (aPCA) (normalised: wild type 0, dead -1); higher = more abundant; growth selection in yeast, the domain comes from the species named
Details: Homo sapiens
Below is a list of entries, each paired with its recorded abundance fitness value.

mutant.name: D11G
abundance fitness: -0.041

mutant.name: V35Y
abundance fitness: -0.305

mutant.name: L10Y
abundance fitness: -0.193

mutant.name: V3N
abundance fitness: -0.207

mutant.name: R52I
abundance fitness: 0.029

mutant.name: I49E
abundance fitness: -0.461

mutant.name: G54N
abundance fitness: 0.108

mutant.name: P60Q
abundance fitness: 0.051

mutant.name: W46F
abundance fitness: 0.027

mutant.name: A47L
abundance fitness: -0.18

mutant.name: Y41Q
abundance fitness: -0.433
